biological target: LXRβ (Homo sapiens, UniProt P55055); construct: LXRβ (amino acids 156-461); expressed in transfected cells; host or cells: HEK293; assay: LXR Gal4 reporter transient transfection assay (mammalian two-hybrid, HEK293), LXRβ; assay type: cell-based; settings: ligand-binding domain (LBD) of LXRβ, HEK293; read-out: LBD-M2H Gal4β
Sequence (P55055 156-460): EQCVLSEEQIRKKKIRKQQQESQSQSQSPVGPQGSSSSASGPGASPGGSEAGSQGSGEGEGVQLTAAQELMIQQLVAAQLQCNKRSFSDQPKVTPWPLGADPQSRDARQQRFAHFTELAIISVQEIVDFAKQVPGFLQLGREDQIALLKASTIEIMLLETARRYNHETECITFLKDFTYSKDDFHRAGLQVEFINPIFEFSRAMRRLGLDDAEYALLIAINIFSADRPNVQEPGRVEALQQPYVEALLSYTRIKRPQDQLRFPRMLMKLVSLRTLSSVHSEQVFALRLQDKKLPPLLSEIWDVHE
pEC50: −log10 of the molar value.
// values below are reported pEC50
attributeMeasured: pEC50

compound	observed
COC(=O)CCc1ccc(S(=O)(=O)n2c(-c3cccs3)c(-c3ccsc3C#N)c3ccccc32)cc1 [20/15]	6.00 to 7.00
N#Cc1ccncc1-c1c(-c2cccs2)n(S(=O)(=O)c2ccc(Cl)cc2)c2ccccc12 [20/2]	> 7.00
N#Cc1sccc1-c1c(-c2cccc(OCC(=O)O)c2)n(S(=O)(=O)c2ccc(Cl)cc2)c2ccccc12 [3/51]	6.00 to 7.00
O=C(O)c1sccc1-c1c(-c2cccs2)n(S(=O)(=O)c2ccc(Cl)cc2)c2ccccc12 [Compound 21]	5.00 to 6.00
N#Cc1sccc1-c1c(-c2cccc(CCCC(=O)O)c2)n(S(=O)(=O)c2ccc(Cl)cc2)c2ccccc12 [30/5]	> 7.00
O=S(=O)(c1ccc(Cl)cc1)n1c(-c2cccs2)c(-c2ccsc2C(F)F)c2ccccc21 [20/3]	> 7.00
Cc1ccc(S(=O)(=O)n2c(-c3ccsc3)c(-c3ccsc3C#N)c3ccccc32)cc1 [1/23]	> 7.00
N#Cc1sccc1-c1c(-c2ccc(F)cc2)n(S(=O)(=O)c2ccc(Cl)cc2)c2ccccc12 [26/1]	> 7.00
N#Cc1sccc1-c1c(-c2cccs2)n(S(=O)(=O)c2ccc(Cl)cc2)c2cc(O)ccc12 [13/1]	> 7.00
Cc1ccc(S(=O)(=O)n2c(-c3cccc(C4CC4C(=O)O)c3)c(-c3ccc(F)cc3C#N)c3ccccc32)cc1 (stereo not shown) [30/15]	6.00 to 7.00
CS(=O)(=O)NC(=O)C1CC1c1cccc(-c2c(-c3ccsc3C#N)c3ccccc3n2S(=O)(=O)c2ccc(Cl)cc2)c1 (stereo not shown) [32/1]	> 7.00
N#Cc1sccc1-c1c(-c2cccs2)n(S(=O)(=O)c2ccc(Cl)cc2)c2ccc(O)cc12 [Compound 13]	> 7.00
Cc1ccc(S(=O)(=O)n2c(-c3cccc(N4CC(C(=O)O)C4)c3)c(-c3ccsc3C#N)c3cc(C)ccc32)cc1 [3/46]	> 7.00
